Test system: UniProt:P07711
Format: biochemical
Set-up: human cathepsin L purified from human liver (Sigma Aldrich); purchased Sigma Aldrich; host or cells: human liver (tissue-purified)
Parameter class (string): assigned from measured Inhibition of cleavage of NPY peptide by Cathepsin-L. Ranges: low value = under 6%, medium value = from 6% up to 20%, high value = 20% and over

>>> df
                                   compound     test_system       group
0  CN(C)c1ccc(C(O)(c2ccc(N(C)C)cc2)c2ccc(N(C)C)cc2)cc1  UniProt:P07711  high value

Which of the defined bands does the recorded Inhibition of cleavage of NPY peptide by Cathepsin-L of `N#CSc1ccc(NC(=O)CSc2nc3ccccc3[nH]2)cc1` sit within?
low value

Which bin should I file Cl.c1ccc(CNC2CCCc3c2[nH]c2ccc(-c4ccccc4)cc32)cc1 (stereo not drawn) under?
high value

Kindly state the category for this compound: `O=C(Nc1ccc(S(=O)(=O)N2CCOCC2)cc1)Nc1ccc(F)c(Cl)c1`
medium value

Lab log: `Nc1ccc2[nH]c3ccccc3c2c1` — assign Inhibition of cleavage of NPY peptide by Cathepsin-L category
low value

# bin lookup: classify `CNS(=O)(=O)c1ccc(NC(=O)Nc2ccc(F)c(Cl)c2)cc1` by its Inhibition of cleavage of NPY peptide by Cathepsin-L
medium value

Form: Item = `COC(=O)CN(C#N)c1nc(NC(C)C)nc(NC(C)C)n1` ; Class = ?
medium value

###

Recorded measurements of percentage inhibition against Nipah peptide, one per entry
Test system: cathepsin L (Homo sapiens, UniProt P07711)
Sequence (P07711 114-333): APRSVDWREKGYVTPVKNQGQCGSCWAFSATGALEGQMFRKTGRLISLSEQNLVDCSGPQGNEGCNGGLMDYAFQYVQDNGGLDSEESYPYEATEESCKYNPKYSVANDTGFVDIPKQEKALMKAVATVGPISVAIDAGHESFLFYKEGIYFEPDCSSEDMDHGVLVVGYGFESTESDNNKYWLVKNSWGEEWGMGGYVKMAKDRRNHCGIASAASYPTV
Format: biochemical
Design: human cathepsin L purified from human liver (Sigma Aldrich); purchased Sigma Aldrich; host or cells: human liver (tissue-purified)
The figure you give is taken to be in %; do not add the unit.

Consider the worked cases shown below.
In [3]: df
Out[3]:
                           structure_string  unit_label  readout_number
0  O=c1[nH]c2ccc(S(=O)(=O)Nc3ccc(Cl)c(Cl)c3)cc2o1           %              82
1  Cc1cnn(CCCNC(=O)c2cc(-c3cccnc3)nc3ccc(Cl)cc23)c1           %            80.3

Alright, here's another compound for you.
Reported percentage inhibition against Nipah peptide of `O=C(Nc1ccc2c(c1)OCO2)c1cc(-c2cccnc2)nc2ccc(Cl)cc12` : 77.9

###

Recorded Inhibition of cleavage of Hendra peptide by Cathepsin-L by entry
Test system: cathepsin L (Homo sapiens)
Format: biochemical
Set-up: human cathepsin L purified from human liver (Sigma Aldrich); purchased Sigma Aldrich; host or cells: human liver (tissue-purified)
Give a bare numeral; the unit % is implied.

>>> print(df.to_string())
                                   molecule  readout_number
0  O=C(Nc1nc(-c2ccccc2)cs1)c1cc(-n2cnnc2)ccc1Cl [Compound 7931205]            34.8
1  O=C(Nc1ccc(S(=O)(=O)N2CCOCC2)cc1)Nc1ccc(F)c(Cl)c1 [Compound 7798500]            26.3
2  Cc1c(C#N)c2ccccc2n1CC(=O)NCc1ccc2c(c1)OCO2 [Compound 6874634]            21.2

Okay, next one:
Inhibition of cleavage of Hendra peptide by Cathepsin-L reported for this molecule O=C(Nc1cccnc1)c1cc2cc(Br)ccc2oc1=O [Compound 7947992] : 31.1
